Target or system Retinoid isomerohydrolase (Bos taurus, UniProt Q28175); recorded quantity IC50.
Hi! Could you send only the number? It should be in nM, unit omitted.

Example cases with answers are listed next.
> print(dat)
                                   molecule                              study.target  units  recorded.measurement
1   CCCC(CCC)COc1cccc(C(O)CCN)c1F (racemic)  Retinoid isomerohydrolase (Bos taurus, UniProt Q28175)     nM                   287
2  CCCC(CCC)COc1ccc(F)c(C(O)CCN)c1 (racemic; 28)  Retinoid isomerohydrolase (Bos taurus, UniProt Q28175)     nM                   132

// below: IC50 requested for another molecule
Task: // IC50 lookup, key: CCCC(CCC)COc1ccc(F)c(C(O)CCN)c1 (racemic; 27)
Result: 157
